Target: T1, LAIR1 on LAIR1 reporter cells (human, UniProt Q6GTX8 22-165, limits assumed); note: test concentration or dose not given here
T1 chain: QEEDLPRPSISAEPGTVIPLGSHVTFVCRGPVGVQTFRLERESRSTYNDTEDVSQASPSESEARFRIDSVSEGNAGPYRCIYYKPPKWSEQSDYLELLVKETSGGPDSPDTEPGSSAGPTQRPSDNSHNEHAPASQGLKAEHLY
Experiment: cell-based or functional assay
Listed here: items and their measured GFP+% of LAIR1 reporter cells, collagen I coated, soluble Ab.
Form entry: value (%) — number only.

{"Binder": "LA-121 (antibody, V domains shown, Rabbit monoclonal IgG) VH: EQSVEESGGRLVTPGTPLTLTCTASGFSLYKYNIQWVRQAPGKGLEYIGASTYAGYTYYASWAIGRVTISRTSTTVDLKMTSPTTEDTATYFCARHIDGDYSGYALWGPGTLVTISS VL: ELDLTQTPASVSAAVGGTVTIKCQASQSIDTWFGWYQQKPGQSPKLLIYGASKLASGVPPRFKGSGSGTEFTLTISDLECADAATYYCQNTYYGVRYLGGAFGGGTEVEIK", "Units": "%", "Reported Value": 1.11}
{"Binder": "LA-94 (antibody, V domains shown, Rabbit monoclonal IgG; Called an agonist antibody; also called mAb LA-94; agonist Ab LA-94) VH: EQSLEESEGRLVTPGTPLTLTCTASGFSLSGYHMSWVRQAPGKGLEYIGYISERGTSYYANWAKGRFTVSKSSSSTVVLSIISPTAEDTATYFCARYGGGDSAFILWGPGTLVTISS VL: ELVMTQTPASVSGPVGGTVTIKCQASHNIDNSLAWYQQKPGQPPKLLIYKASTLASGVSSRFKGSGSGTEYTLTISDLECADAATYFCQGTIGLNSGCAFGGGTEVEIK", "Units": "%", "Reported Value": 50.4}

Per the records, this binder ( LA-30 (antibody, V domains shown, Rabbit monoclonal IgG; also called mAb LA-30) VH: EQSVESGGGLVQPEGSLTLTCKASGFDFSRNAICWVRQAPGKGPEWIACYSFSSSATYYASWAKSRFTISKTSSTTVTLQMTSLTAADTATYFCARVDIYGGSRYWGMWGPGTLVTISS VL: ELVMTQTPASVEAAVGGTVTIKCQASQNIGGDLAWYQQKPGQPPKLLIYRASTLESGVPSRFSGSGSGTEFTLTISDLECADAATYYCQDTDIGSGAFGGGTELEIK ) has GFP+% of LAIR1 reporter cells, collagen I coated, soluble Ab equal to 1.51
